# assay.procedure: qHTS for inhibitors of Vif-A3G interactions: Cherry picks; note: nearly all actives have a fitted effect of over 80% in size; note: potency is the fitted concentration of half-maximal effect
# test.context: HeLa A3G-eYFP + Vif (tagged APOBEC3G with the HIV-1 protein that degrades it), 24 h; eYFP fluorescence increase; series mostly up to 36.9 µM
In all, about 2,100 compounds went through this assay and about 650 (31%) were called active. About 16% were inconclusive and are not listed. The list shows a part of the results.
quantity.kind: Potency

- N#C/C(=C\c1cccc(O)c1)c1nc2ccccc2o1: 3.14 µM (active)
- CN1C(=O)C(O)(C2COC(C)(C)CC2=O)c2cc(Br)ccc21 (centres undefined): inactive
- Cc1ccsc1/C=N\NC(=O)c1n[nH]c2c1CCC2: inactive
- N#C/C(=C\c1ccccc1[N+](=O)[O-])C(=O)NCc1ccccc1: inactive
- C/C(CCC(C)C)=N\NC(=S)NCc1ccccc1: inactive
- CO/N=C\CC(=O)Nc1ccc(Oc2ccccc2)cc1: inactive
- N#C/C(=C\c1ccc(N2CCOCC2)o1)C(=O)NC1CCCCC1: 15.8 µM (active)
- CCOc1ncccc1C(=O)OCc1ccc(C(=O)OC)cc1: inactive
- CCOc1ccc(S(=O)(=O)NCc2ccccn2)cc1NC(=O)c1ccccc1: inactive
- CCOC(=O)C(C(=O)OCC)C(Nc1cccc(Br)c1)c1ccccc1 (centres undefined): inactive
- CC(=O)Nc1cccc(-c2ccnc3c2CC(C(=O)Nc2ccc4c(c2)OCO4)O3)c1 (centres undefined): inactive
- O=C(O)CSc1cc(NS(=O)(=O)c2cccc([N+](=O)[O-])c2)c2ccccc2c1O: inactive
- Cc1cc(/C=C2\SC(=S)N(Cc3ccco3)C2=O)c(C)n1-c1cccnc1: 23.1 µM (active)
- NNC(=S)Nc1c(F)cc(F)cc1Br: inactive

These entries and their values trace back to PubChem BioAssay AID651812.
